target: T1, RSV F B S443P (RSV B); experiment: FACS, % binding to RSV F B variants
T1 construct: whole, on cells; also called mutant S443P
# % binding values compiled below
Give just the numeric value; % need not be written.

| BINDER | % binding / % |
| --- | --- |
| MPK65-v2-v1.2 (antibody, V domains shown) VH: QVPLVQSGAEVKKPGESLKISCKGSGYSFINYWIGWVRQMPGKGLEWMGVIYPFDSDTKYSPSFQGHVTISADKSSNTAYVQWSSLKASDTAMYYCARFTFGIAVVTDDVSGEGQAFEIWGQGTMVTVSS VL: QIVMMQSPATLSVSPGERATLSCRASQSVAGNLAWYQQRPGQAPRLLIYGASTRATGVPARFSGSGSETEFTLTISSLQSEDFAVYYCHQYSNLPQAFGQGTRLDIK | 33.8 |
| MPK201-v4.1 (antibody, V domains shown) VH: QVQLVQSGAEVKKPGESLKISCQGSGYSFISYWIGWVRQKPGKGLEWMGIIYPFDSETKYSPSFQGHVTFSADKSINTAYVQWSSLRASDTAMYYCARFTFGLAVTTADVSGEGQAFEIWGQGTMVTVSS VL: EIVMMQSPATLSVSPGERATLSCRASQSVAGNLAWYQQRPGQAPRLLVYGASTRASGVPARFSGSGSETEFTLTISSLQSEDFAVYYCHHYSDWPQAFGQGTRLDIK | 31.5 |
| MPK176-v4.3 (antibody, V domains shown) VH: QVQLVQSGAEVKKPGASVRVSCKASGYTLTAYGISWVRQAPGQGLEWMGWISPKHGSTHYAQRFQGRVTMTTDTSTSTAYMELRSLRPDDTAVYFCAREGVDIMAVPWYFDYWGQGTLVAVSS VL: SYVLTQPPSVSVAPGQTARISCGGNNIGSKSVHWYQQKPGQAPVVVVYDDSKRPSGIPERFSGSNSGNTATLTISGVEAGDEADYFCQVWDSATDHWVFGGGTKLTVL | 29.8 |

[ask] What does the record list as % binding for MPK201-v1.2 (antibody, V domains shown) VH: EVQLVQSGAEVKKPGESLKISCQGSGYSFINYWIGWVRQKPGKGLEWMGIIYPFDSETKYSPSFQGHVTFSADKSINTAYVQWSSLRASDTAMYYCARFTFGLAVTTADVSGEGQAFEIWGQGTMVTVSS VL: QIVMMQSPATLSVSPGERATLSCRASQSVAGNLAWYQQRPGQAPRLLVYGASTRASGVPARFSGSGSETEFTLTISSLQSEDFAVYYCHHYSDLPQAFGQGTRLDIK ?
[reply] 45.8
